compounds and their reported Burkin Assay in Myotubes, value relative to DMSO
# Tested on: α7 integrin (LacZ reporter in α7+/LacZ myotubes)
# protocol summary: Myotube α7 integrin FDG assay (Burkin assay in myotubes, 96-well)
# Assay type: cell-based, mouse
# measurement conditions: 5 uM; SU9516 analogs, 96-well, N=3-6
Reply with just the number.

# example entries with known answers
Prompt: Reported Burkin Assay in Myotubes, value relative to DMSO for `O=C1Nc2ccccc2/C1=C/c1ccccc1Cl` : what is it?
Response: 0.9499

Prompt: Data request, read-out Burkin Assay in Myotubes, value relative to DMSO, for `O=C1Nc2ccccc2/C1=C/c1ccnc2ccccc12`
Response: 1.402

Prompt: Could you share which Burkin Assay in Myotubes, value relative to DMSO value was measured for `O=Nc1c(-c2c(O)[nH]c3cc(Br)ccc23)[nH]c2ccccc12` ?
Response: 0.7596

Prompt: Quick check: Burkin Assay in Myotubes, value relative to DMSO of `O=C1Nc2ccccc2/C1=C/c1cnc(-c2ccccc2)[nH]1` ?
Response: 1.095

Prompt: I would be grateful if you could share the reported Burkin Assay in Myotubes, value relative to DMSO for `CCN(CC)CCNC(=O)c1c(C)[nH]c(/C=C2\C(=O)Nc3ccc(F)cc32)c1C` .
Response: 0.7739

Prompt: Given `Cc1ccc2c(c1)/C(=C/c1ccccc1F)C(=O)N2` , state its recorded Burkin Assay in Myotubes, value relative to DMSO.
Response: 0.9123

Prompt: # lookup: Burkin Assay in Myotubes, value relative to DMSO of `COc1cc(OC)c(/C=C2/C(=O)Nc3ccccc32)c(OC)c1`
Response: 0.8529

***
Prompt: Query: Burkin Assay in Myotubes, value relative to DMSO; subject: `O=Nc1c(-c2c(O)[nH]c3ccccc23)[nH]c2ccccc12`
Response: 0.6921
